Listed next: entries and their corresponding apparent KD of MS2 coat protein.
- System: MS2 coat protein
- Protocol: apparent KD of MS2 coat protein; higher = weaker reporter binding
- Condition notes: Eterna round: R107; input ligand: none
Observable: apparent KD of MS2 coat protein (nM)

[[record]]
biosequence = "AGUAGUUGACAAAAGUCAGCUACAAUUGAAGGAGCGGGUGGGUGCCCAGGUAGGUCGCAAUAACAUGAGGAUCACCCAUGUAUAA [ArgAS 2 #BothOrNeither #OpenEnded]"
numeric_value = 21

[[record]]
biosequence = "GGUUUAUAUAUAUAUAUAUAGAUUACUGAAGGAGCGGGAAAUAACCCAGGUAGGUCGCAGAGAUCCACAUGAGGAUCACCCAUGU [!0.E]"
numeric_value = 40.2

[[record]]
biosequence = "CUCCCGUGGUCGGCCGCCACUGGAGGCCUUGCGCGACAUGAGGAUCACCCAUGUGGGCCCGGCGUCAGGACCGGGAUCGCGUGAG [#1 Same State - Tryptophan B Attempt #11 (HarryS)]"
numeric_value = 16.1

[[record]]
biosequence = "ACACAUGACGCGGCCGCCACUGCAACAUGAGGAUCACCCAUGUCACCCAUGUAUGACAUGAGGAUCAGGACCGGGCGUGUGUGGA [Same State Tryptophan B 3]"
numeric_value = 566

[[record]]
biosequence = "UUUACAUGAGGAUCACCCAUGUGCCAUGAUACCAGACAUGAAAAUGUCCCUUGGCAGCAUGAGUGAAGCGUCGGGAAACCGACGC [Kninicky]"
numeric_value = 249

[[record]]
biosequence = "UGCCGAGACGUGGAUUACCCGUGUACCGAAGGAGCGCCCGAAAGGGCAGGUAGGUCGCGGAGGACAUGAGGAUCACCCAUGUUUA"
numeric_value = 56.3


====

- Tested on: MS2 coat protein
- Protocol: apparent KD of MS2 coat protein; designed switch direction (-1 OFF switch, 1 ON switch): -1; higher = weaker reporter binding
- Condition notes: input ligand: FMN 200 uM
Observable: apparent KD of MS2 coat protein (µM)

[[record]]
biosequence = "ACAAACACGGCAGGAUAUCCUCGCAUAUGAUAGGUUGUUCUCCACAUGAGGAUCACCCAUGUCGAGGAGAAGGGCCAUCAUUCU [Tibema] (Eterna round: R96, puzzle: Exclusion NG 2)"
numeric_value = 0.0162

[[record]]
biosequence = "AACAGUACAGGAUAUACAUGAGGAUCACCCAUGUGAGACUUAAGUGGCGUACCACAAAGUAGAAGGGUACUGGA [JL Maslow Revisted mod 8] (Eterna round: R96, puzzle: Exclusion 3)"
numeric_value = 0.838

[[record]]
biosequence = "UAUAUGUCAGGAUAUUAGUAGUGGAUGAAUAAGAUUAUUGCUGAGAAGGGACAUGAGGAUCACCCAUGUUCCUC [JR_Ex4_Sub002] (Eterna round: R97, puzzle: Exclusion 4)"
numeric_value = 0.0275

[[record]]
biosequence = "ACCUCACUUGAGGAUCACCCAAGUCAGGAUAUACUCGUUUGCCGCACGACGCGGCAUUGUAGAAGGGACGGGUU [Arveatat] (Eterna round: R97, puzzle: Exclusion 1)"
numeric_value = 0.0351

[[record]]
biosequence = "GCUUGAGCAGGAUAUACAUGAGGAUCACCCAUGUGCUUGAGCUUGAUCGAGUUCGAGUGUAGAAGGGUUCGAGU [-26.9, -23.9 kcal, 24% A, 1 bis, 1 bis] (Eterna round: R97, puzzle: Exclusion 3)"
numeric_value = 0.0208

[[record]]
biosequence = "ACAUGAGGAUCACCCAUGUAAUGAAGGGUACUAUACUAAACGUAGGAUAUCGAUGUAAGAUUGAACGAGAAGGACGAUUGCCUU [JR_ExcNG3_Sub050] (Eterna round: R96, puzzle: Exclusion NG 3)"
numeric_value = 0.0559

[[record]]
biosequence = "GGUUAUUCUGUAUGGGUACACAUGAGGAUCACCCAUGUACAGAGGUCUACCCUAAUAUAGCAAGCUGGCCCGUCCUA [Eternabot (L1) Solution 24] (Eterna round: R97, puzzle: Sensor, turn-off variant 1)"
numeric_value = 0.148

[[record]]
biosequence = "UCCUCACAUGAGGAUCACCCAUGUCAGGAUAUACCCAUCCAGCGAAAUUAAAGCUGUAGUAGAAGGGACAUGCA [Raertele] (Eterna round: R97, puzzle: Exclusion 1)"
numeric_value = 0.0404

[[record]]
biosequence = "GGAGGUGAGGUAAGGAUAUCCUCCUCGAAAGAGGAGGAGAAGGUACAUGAGGAUCACCCAUGUAAGGAAGGAGG [AK-MS2ROC-r4-Bmoexclusion4-11] (Eterna round: R97, puzzle: Brourd's mod of Exclusion 4)"
numeric_value = 0.152

[[record]]
biosequence = "CUUUCGUGAGGAUAUGUGGCUAAAAUCGUGAGAUCGAGGCUACAGAAGGCACAUGAGGAUCACCCAUGUUCCUC [salish99_ex4_r4_212] (Eterna round: R97, puzzle: Exclusion 4)"
numeric_value = 0.379

